# experimental_target: Mmp7 (rat); also: test concentration or dose not given here
# method_notes: reporter assay of Huesken 2005
# conditions_used: siRNA
Oligonucleotides are given in HELM: sugar(base)linkage, 5' to 3'; d 2'-deoxyribose, r ribose, m 2'-O-methylribose, p phosphate. ss, as = sense and antisense strand
property_measured: normalised inhibition (eCFP-eYFP dual reporter)

Bench note: what normalised inhibition (eCFP-eYFP dual reporter) did "RNA1{r(G)p.r(U)p.r(C)p.r(A)p.r(U)p.r(G)p.r(G)p.r(A)p.r(G)p.r(A)p.r(U)p.r(A)p.r(A)p.r(U)p.r(G)p.r(C)p.r(A)p.r(G)p.r(A)p.d(T)p.d(T)}|RNA2{r(U)p.r(C)p.r(U)p.r(G)p.r(C)p.r(A)p.r(U)p.r(U)p.r(A)p.r(U)p.r(C)p.r(U)p.r(C)p.r(C)p.r(A)p.r(U)p.r(G)p.r(A)p.r(C)p.d(A)p.d(C)}$$$RNA1{StrandType:ss}|RNA2{StrandType:as}$" show? 115%

Try this substance next: "RNA1{r(G)p.r(C)p.r(C)p.r(A)p.r(G)p.r(G)p.r(C)p.r(C)p.r(U)p.r(C)p.r(G)p.r(G)p.r(C)p.r(G)p.r(G)p.r(A)p.r(G)p.r(A)p.r(U)p.d(T)p.d(T)}|RNA2{r(A)p.r(U)p.r(C)p.r(U)p.r(C)p.r(C)p.r(G)p.r(C)p.r(C)p.r(G)p.r(A)p.r(G)p.r(G)p.r(C)p.r(C)p.r(U)p.r(G)p.r(G)p.r(C)p.d(C)p.d(C)}$$$RNA1{StrandType:ss}|RNA2{StrandType:as}$" 36.1%

Try this substance next: "RNA1{r(G)p.r(A)p.r(U)p.r(G)p.r(A)p.r(G)p.r(U)p.r(A)p.r(C)p.r(U)p.r(G)p.r(G)p.r(A)p.r(C)p.r(G)p.r(G)p.r(A)p.r(U)p.r(G)p.d(T)p.d(T)}|RNA2{r(C)p.r(A)p.r(U)p.r(C)p.r(C)p.r(G)p.r(U)p.r(C)p.r(C)p.r(A)p.r(G)p.r(U)p.r(A)p.r(C)p.r(U)p.r(C)p.r(A)p.r(U)p.r(C)p.d(C)p.d(T)}$$$RNA1{StrandType:ss}|RNA2{StrandType:as}$" 87.4%

Try this substance next: "RNA1{r(C)p.r(U)p.r(C)p.r(U)p.r(C)p.r(U)p.r(G)p.r(G)p.r(G)p.r(U)p.r(C)p.r(U)p.r(G)p.r(G)p.r(G)p.r(U)p.r(C)p.r(A)p.r(C)p.d(T)p.d(T)}|RNA2{r(G)p.r(U)p.r(G)p.r(A)p.r(C)p.r(C)p.r(C)p.r(A)p.r(G)p.r(A)p.r(C)p.r(C)p.r(C)p.r(A)p.r(G)p.r(A)p.r(G)p.r(A)p.r(G)p.d(T)p.d(G)}$$$RNA1{StrandType:ss}|RNA2{StrandType:as}$" 73.1%

Try this substance next: "RNA1{r(C)p.r(U)p.r(G)p.r(G)p.r(G)p.r(U)p.r(C)p.r(U)p.r(G)p.r(G)p.r(G)p.r(U)p.r(C)p.r(A)p.r(C)p.r(U)p.r(C)p.r(U)p.r(U)p.d(T)p.d(T)}|RNA2{r(A)p.r(A)p.r(G)p.r(A)p.r(G)p.r(U)p.r(G)p.r(A)p.r(C)p.r(C)p.r(C)p.r(A)p.r(G)p.r(A)p.r(C)p.r(C)p.r(C)p.r(A)p.r(G)p.d(A)p.d(G)}$$$RNA1{StrandType:ss}|RNA2{StrandType:as}$" 87.6%

Try this substance next: "RNA1{r(A)p.r(U)p.r(C)p.r(U)p.r(U)p.r(A)p.r(G)p.r(G)p.r(A)p.r(A)p.r(A)p.r(U)p.r(U)p.r(U)p.r(U)p.r(A)p.r(C)p.r(C)p.r(U)p.d(T)p.d(T)}|RNA2{r(A)p.r(G)p.r(G)p.r(U)p.r(A)p.r(A)p.r(A)p.r(A)p.r(U)p.r(U)p.r(U)p.r(C)p.r(C)p.r(U)p.r(A)p.r(A)p.r(G)p.r(A)p.r(U)p.d(A)p.d(A)}$$$RNA1{StrandType:ss}|RNA2{StrandType:as}$" 79.6%
